Values were extracted from PubChem BioAssay AID686978.

experiment: qHTS for Inhibitors of human tyrosyl-DNA phosphodiesterase 1 (TDP1): qHTS in cells in absence of CPT; details: DT40 Tdp1-/- hTDP1 cells, no CPT, ATP luminescence, 48 h; note: nearly all actives have a fitted effect of over 55% in size
The whole screen tested about 420,000 compounds, of which about 64,000 (15%) were called active. Roughly 27% stayed inconclusive and do not appear here. Calls come from the whole dose curve; as a rule, active = well fitted inhibition curve with a large enough effect; inconclusive = small, poorly fitted or top-dose-only effect; inactive = flat fitted curve, though single readings scatter. A selection follows.
Classes used: Y = active, N = inactive

compound	label
FC(F)(F)c1nnc2ccc(N3CCN(c4ccccc4)CC3)nn12	N
COC(=O)CCc1sc(Nc2ccc(Br)cc2)nc1-c1ccc(OC)cc1	Y
CC1C=CCC2C(=O)N(c3cccc(C(=O)N4CCCCCC4)c3)C(=O)C12 (stereo not given)	N
Fc1c(F)c(C(F)(F)F)c(F)c(F)c1N1CCN(c2ccc3nnc(C(F)(F)F)n3n2)CC1	Y
CCOc1cc(S(=O)(=O)NC2CC(C)(C)NC(C)(C)C2)ccc1F	N

* * *

assay: qHTS for Inhibitors of human tyrosyl-DNA phosphodiesterase 1 (TDP1): qHTS in cells in absence of CPT; settings: DT40 Tdp1-/- hTDP1 cells, no CPT, ATP luminescence, 48 h; note: nearly all actives have a fitted effect of over 55% in size; note: potency is the fitted concentration of half-maximal effect
Screen size: about 420,000 compounds; about 64,000 (15%) were called active. About 27% were inconclusive and are not listed. A selection follows.

molecule	Potency
CCN(CCn1cccn1)C(=O)CC1C(=O)NCCN1Cc1cccc(OC)c1OC (stereo not given)	inactive
COc1ccc(N(CC(=O)Nc2cccc3ccccc23)S(C)(=O)=O)c(OC)c1	inactive
CC(=O)Nc1ccc(/C=N/Nc2ccc(C(=O)c3c(C)cc4ccccn34)cc2[N+](=O)[O-])cc1	11.6 µM (active)
O=C(O)c1ccccc1NC(=O)c1ccccc1-c1ccccc1C(=O)O	inactive
CC(=O)Nc1ccc(NC(=S)NC(=O)c2ccc([N+](=O)[O-])c(C)c2)cc1	inactive
OCCN1CCN(c2nnc(-c3ccccc3)c3ccccc23)CC1	inactive
Cc1ccnc(NS(=O)(=O)c2ccc(NC(=O)c3oc4ccccc4c3C)cc2)n1	inactive
CS(=O)(=O)N1CCN=C1SCc1ccc(F)cc1	inactive
CCO/C([O-])=N/c1c[n+](N2CCOCC2)no1	inactive
O=C1OC(NC(=O)c2ccccc2)C(N2CCOCC2)=C1Cl (stereo not given)	inactive

* * *

assay: qHTS for Inhibitors of human tyrosyl-DNA phosphodiesterase 1 (TDP1): qHTS in cells in absence of CPT; settings: DT40 Tdp1-/- hTDP1 cells, no CPT, ATP luminescence, 48 h; note: nearly all actives have a fitted effect of over 55% in size
Screen size: about 420,000 compounds; about 64,000 (15%) were called active. Roughly 27% stayed inconclusive and do not appear here. Calls come from the whole dose curve; as a rule, active = well fitted inhibition curve with a large enough effect; inconclusive = small, poorly fitted or top-dose-only effect; inactive = flat fitted curve, though single readings scatter. Not all results are given here.
Classes used: t = active, f = inactive

molecule	label
CCCOC(=O)Nc1sc2c(c1C(=O)OCC)CCC2	f
COc1cccc(-c2nc3cc(C)ccc3o2)c1	f
O=C(Nc1ccc(NC(=O)c2cccs2)cc1)c1ccc2ccccc2c1	f
CC(=O)c1ccc(N2CCN(S(=O)(=O)c3c(C)[nH]c(=O)[nH]c3=O)CC2)cc1	f
COc1ccc(/C=N/OCC(=O)N(Cc2ccccc2)c2ccccc2C(=O)O)cc1	f
Clc1ccc(C[n+]2cc(-c3ccccc3)n3c2CCC3)cc1	t
COc1cccc(C(O)Cc2nc3ccccc3n2C)c1OC (stereo not given)	f
Fc1ccc2cnc(-c3ccccc3)cc2c1	f
Cn1c(CNC(=O)C(C)(C)C)nc2ccccc21	f
O=C(Nc1cccc(C(=O)N2CCCC2)c1)c1ccccc1	f
O=S(=O)(Nc1ccccc1N1CCOCC1)c1ccc(Cl)s1	f
CCc1ccccc1OCCSc1nc(-c2cccs2)nc2cc(=O)[nH]n12	f
Cc1cccc(OC(=O)c2sc3ncn(C)c(=O)c3c2C)c1	f
CCCCOc1ccc(N(CC(=O)NC(C)C)C(=O)CCC(=O)Nc2ccccn2)cc1	f
COc1ccccc1NC(=O)c1cc(Cl)nc2ccccc12	f
CS(=O)(=O)N1CCC(C(=O)N2CCN(c3ccccc3)CC2)CC1	f
CCCOc1ccc(F)cc1-c1cc(C(=O)Nc2ccc(F)c(Cl)c2)[nH]n1	t
COc1ccc(-c2noc(-c3ccc(C)cc3)n2)cc1	f
C/C=C(\C)C(=O)N1CC2(CC(c3cccc(NC(=O)CCCCC)c3)=NO2)C[C@@H]1C(N)=O (stereo not given in full)	f
Cc1ccc(OCCSc2nc(-c3cccs3)nc3cc(=O)[nH]n23)cc1Cl	t
COc1ccc(NC(=O)CN2CCN(S(=O)(=O)c3ccc(F)cc3)CC2)cc1Cl	f
N/C(=N\OC(=O)c1ccc([N+](=O)[O-])cc1)c1ccccn1	f
CC(NCc1nc2ccccc2n1C)C12CC3CC(CC(C3)C1)C2 (stereo not given)	t
COC(=O)c1ccc(-c2nc3cc(NC(C)=O)ccc3o2)cc1	f
O=C(Nc1ccc2oc(-c3ccc4ccccc4c3)nc2c1)c1cccs1	t
CCCC(C(=O)NC1CCCC1)N(C(=O)Cn1nnc(-c2ccc(C)o2)n1)c1cccc(O)c1 (stereo not given)	f
COc1ccc(-c2nc3c(s2)CCc2onc(-c4ccc(OC)cc4)c2-3)cc1	t
O=C(NC(=O)c1ccc(Cl)c(Cl)c1)OC1CCS(=O)(=O)C1 (stereo not given)	f
COc1ccccc1C(=O)COC(=O)CNS(=O)(=O)c1ccc(NC(C)=O)cc1	f
NC(=O)C1CCN(C(=O)c2cc(S(=O)(=O)N3CCN(c4ccccc4)CC3)ccc2Cl)CC1	t
CCNC(=O)c1ccc(OCC(=O)Nc2ccc(F)cc2)c(OC)c1	f
Cc1ccc(SCc2c(C(=O)N/N=C/C3CC=CCC3)nnn2-c2nonc2N)cc1 (stereo not given)	f
N/C(=N\OC(=O)c1ccc2c(c1)OCO2)c1ccc(Br)cc1	f
CCN(CC)CCCN=C(N)N	f
CCOc1ccc(Br)cc1S(=O)(=O)Nc1cccc(S(=O)(=O)N(CC)CC)c1	f
O=C1C2C3C=CC(C3)C2C(=O)N1c1ccc(-c2nc3ccccc3c(=O)o2)cc1 (stereo not given)	f
O=C(Nc1ccc2oc(-c3ccc(O)c(Br)c3)nc2c1)c1cc2ccccc2o1	f
CCS(=O)(=O)NCCc1ccc(OC)c(OC)c1	f
CN(C)c1ccnc(Nc2ccc(F)cc2)c1C#N	f
CCc1ccc(NC(=O)CSc2nnc(-c3cnccn3)n2Cc2ccco2)cc1	f
Clc1ccc(C[n+]2cc(-c3ccc(Cl)cc3)n3c2CCC3)cc1	t
Cc1csc(Nc2ccc(Cl)cc2)[n+]1-c1ccc(Cl)cc1	t
CN(C1CCS(=O)(=O)C1)S(=O)(=O)c1ccc2ccccc2c1 (stereo not given)	f
CNc1nc(-c2ccccc2)cc(-c2ccccc2)n1	f
CC(=O)c1ccc(N2CCN(C(=O)C3CCN(S(=O)(=O)c4ccc5c(c4)CC(C)N5C(=O)C4CC4)CC3)CC2)cc1 (stereo not given)	t

* * *

assay: qHTS for Inhibitors of human tyrosyl-DNA phosphodiesterase 1 (TDP1): qHTS in cells in absence of CPT; conditions: DT40 Tdp1-/- hTDP1 cells, no CPT, ATP luminescence, 48 h; note: nearly all actives have a fitted effect of over 55% in size; note: potency is the fitted concentration of half-maximal effect
The campaign covered roughly 420,000 compounds. About 64,000 (15%) were called active. Inconclusive results (about 27%) are left out. These entries were drawn from the full list.

compound	Potency
CC1CC(C)CN(C(=O)CSc2nnc(CSc3ncccn3)n2C)C1 (stereo not drawn)	inactive
CCOC(=O)C1CCN(c2csc3ccc(C)cc3c2=O)CC1	inactive
CCOCCCNC(=O)C(=O)NCCCOCC	inactive
CCOC(=O)C1CCN(CCC(=O)Nc2cccc(C)c2)CC1	inactive
CCCCCC(=O)Nc1ccc2oc(-c3ccncc3)nc2c1	inactive
CC(C)Sc1nnc([C@H](Cc2ccccc2)NC(=O)OC(C)(C)C)o1	inactive
Cc1ccccc1NC(=O)NNC(=O)OC(C)(C)C	inactive
CC(=O)Nc1ccc(-c2nc3ccccc3o2)cc1	inactive
O=C(Nc1cccc(Cl)c1)Nc1ccccc1NS(=O)(=O)c1cccs1	inactive
O=C(COc1ccc(Cl)cc1)Nc1ccc(-c2nc3cc(Cl)ccc3o2)c(O)c1	inactive
Cc1nc2nc[nH]n2c(=O)c1NC(=O)c1cccc(OCC(C)C)c1	inactive
O=C(COC(=O)c1ccc(O)cc1O)NC(=O)c1ccccc1	inactive
Cc1ccc(CN2CCN(c3ccccc3Cl)CC2)o1	inactive
CCCOc1ccc(C(=O)Nc2ccc3oc(-c4cccc(Cl)c4Cl)nc3c2)cc1	7.31 µM (active)
COc1cc(OC)cc(C(=O)Nc2ccc(-c3nc4ccccc4o3)c(O)c2)c1	16.4 µM (active)
OC(COc1ccc2ccccc2c1)CN1CCOCC1 (stereo not drawn)	inactive
CCOC(=O)C1CCN(c2c(Nc3cc(C)cc(C)c3)c(=O)c2=O)CC1	16.4 µM (active)
CCCCOc1ccc(C(=O)Nc2cccc(-c3nc4ccccc4o3)c2C)cc1	inactive
CCCCN(C(=O)COc1ccc(NC(C)=O)cc1)C1CCS(=O)(=O)C1 (stereo not drawn)	inactive
Cc1ccc(C(=O)NNC(=O)OC(C)(C)C)c(Cl)c1	inactive
C[C@@H](NC(=O)OC(C)(C)C)c1nnc(S(=O)(=O)Cc2ccccc2)o1	1.03 µM (active)
Cc1ccccc1OCC(=O)N(Cc1cccc(F)c1)C1CCS(=O)(=O)C1 (stereo not drawn)	inactive
CC(C)(C)OC(=O)NNc1c2ccccc2nc2ccccc12	13 µM (active)
